Entries and their MIC
System: control Gram-negative E. coli 25922 strain
Test: Antibacterial activity, microbroth dilution MIC, E. coli 25922
Type: cell-based, Escherichia coli
Conditions: Escherichia coli; E. coli 25922, microbroth dilution; read-out: MIC, 25922

Example results:
What measured MIC goes with "CCc1cc(C(=O)O)c(=O)[nH]c1-c1ccc(N2C[C@H]3CCN(C)[C@H]3C2)cc1.O=C(O)C(F)(F)F" ?
3.5 to 12.5 µg/mL

What MIC value was documented for this molecule, "CCc1c(-c2ccc(N3CCC(N)CC3)cc2)[nH]c(=O)c(C(=O)O)c1O" ?
12.5 to 150 µg/mL

Could you share which MIC value was measured for "CCc1c(-c2ccc(N3CC[C@@H](O)C3)cc2)[nH]c(=O)c(C(=O)O)c1O" ?
< 1 µg/mL

Continuing:
Sample "CCc1cc(C(=O)O)c(=O)[nH]c1-c1ccc(OC)cc1F" — what was its MIC?
12.5 to 150 µg/mL
